# STUDY_TARGET: 5-hydroxytryptamine receptor 7 (Homo sapiens, UniProt P34969)
# Sequence (P34969 whole entry): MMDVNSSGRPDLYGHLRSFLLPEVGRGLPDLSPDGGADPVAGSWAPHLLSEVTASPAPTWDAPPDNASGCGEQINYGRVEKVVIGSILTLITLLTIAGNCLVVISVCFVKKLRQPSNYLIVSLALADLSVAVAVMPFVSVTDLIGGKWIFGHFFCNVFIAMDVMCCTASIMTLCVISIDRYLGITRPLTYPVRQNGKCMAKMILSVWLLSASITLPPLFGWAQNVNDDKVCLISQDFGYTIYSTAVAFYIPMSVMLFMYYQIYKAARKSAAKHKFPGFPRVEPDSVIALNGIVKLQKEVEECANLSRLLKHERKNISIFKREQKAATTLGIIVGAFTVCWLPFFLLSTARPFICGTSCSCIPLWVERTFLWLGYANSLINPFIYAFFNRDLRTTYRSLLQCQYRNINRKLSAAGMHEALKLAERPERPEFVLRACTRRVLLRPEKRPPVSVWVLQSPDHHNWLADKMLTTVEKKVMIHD
# PROTOCOL_NOTES: Displacement of [3H]-5-CT from recombinant human 5HT7 receptor expressed in HEK293 cells measured after 1 hr by microbeta scintillation counting analysis
READOUT_NAME: Ki (nM)
Give bare numbers, in nM.

A selection of reference data follows.
O=c1c(-c2ccc(F)cc2)c2ccccn2c(=O)n1CCCCN1CCCC(c2c[nH]c3ccccc23)C1 (centres undefined) ... 1440
COc1ccc(-c2c(=O)n(CCCCN3CCCC(c4c[nH]c5ccc(OC)cc45)C3)c(=O)n3ccccc23)cc1 (centres undefined) ... 958
O=c1c(-c2ccccc2)c2ccccn2c(=O)n1CCCCN1CCCC(c2c[nH]c3ccccc23)C1 (centres undefined) ... 1110

Attention now turns to another entry.
Please look at this compound and report its Ki: COc1ccc(-c2c(=O)n(CCCCN3CCCC(c4c[nH]c5ccccc45)C3)c(=O)n3ccccc23)cc1 (centres undefined)
1920

Where do the numbers come from? From ChEMBL document CHEMBL4400523.
